Biological target: T1, canine OX40L, full length membrane form, expressed on HEK293 cells (canine)
T1 chain: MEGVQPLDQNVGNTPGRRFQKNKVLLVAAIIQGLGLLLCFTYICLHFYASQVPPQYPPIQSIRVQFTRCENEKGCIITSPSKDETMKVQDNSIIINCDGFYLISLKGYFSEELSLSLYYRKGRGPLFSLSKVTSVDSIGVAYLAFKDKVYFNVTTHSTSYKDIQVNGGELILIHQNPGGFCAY
Test: cell-based or functional assay
Lab note: cut-off is 60%. Strictly less in % Signal Inhibition Rep2 is true (1). Exactly 60% or more is false (0).

Example entries and their recorded answers appear below.
{"binder": "PMX092 (antibody, V domains shown) VH: EVQLVESGGDLVKPGGSLRLSCVASGFTFNNLHMSWVRQAPGKGLQWVAFINSDGRNRNYADAVKGRVTISRDYAKNTLYLQINSLRAEDTAVYYCTGGSIWTHFDYWGQGTLVTVSS VL: SYVLTQLPSMSVTLRQTARITCEGDIIASKRVYWYQQKLGQVPVLFIYADNSRPSGIPERFSGASSGNTATLTISGALAEDEADYYCQVWDSNANSVFGGGTHLTVL", "label.value": "true (1)"}
{"binder": "PMX026 (antibody, V domains shown, also called PMX26) VH: EVHLVESGGDLVKPGGSLRLSCVASGFTFSSYHMSWVRQAPGKGLQWVAFINAGEISTNYADAVKGRFTISRDNAKNILYLQMNSLRAEDTAVYYCASGHIWIRPFDYWGQGTLVTVSS VL: SYVLTQLPSMSVTLRQTARITCEGDSIGRKRVNWYQQKLGQVPVLIIYDDDSRPSGIPERFSGANSGNTATLTISGALAEDEAEYYCQVWDSSNNWVFGEGTQLTVL", "label.value": "false (0)"}
{"binder": "PMX293 (antibody, V domains shown) VH: EVRLLESGGDLVKPAGSLRLSCAVSGFTFSTYDMSWVRQAPGKGLQWVAYITYDGRTTSYTDTVKGRFTVSRDNAKNMLYLKMNSLRSEDAAVYYCAKAHRGWFFDHWGQGTLVTVSS VL: SYVLTQLPSVSVTLRQTARITCGGDSIGSKNVYWYQQKLGQAPVLIIYDDTSRPSGIPERFSGANSGTTATLTISGALAEDEADYYCQVWDSSTGVFGGGTHLTVL", "label.value": "false (0)"}

As a next step, examine the binder that follows.
Is 60% strictly greater than the binder's reported % Signal Inhibition Rep2? binder: PMX292 (antibody, V domains shown) VH: AVQLVESGGDLVRPGGSLRLSCVASGFTFSNFDMYWVRQAPGRGLQWVATISYDGFNTYSTDTVRGRFTISRDNARNTVYLQMNSLRVEDTAVFYCTARRFGLGYWGQGTLVTVSS VL: DIFMAQTPPSLSVSPRETASISCKASQSLLHSDGNTYLDWYLQKPGQSPQLLIYLVSNRFPGVSDRFSGSGSGTGFTLRISRVEASDTGVYYCGQGTQLPYTFSQGTKLEIK true (1)
